Origin of the recorded values: paper PMC2219267

- tested-system: band 3 (Homo sapiens)
- Sequence (P02730 whole entry): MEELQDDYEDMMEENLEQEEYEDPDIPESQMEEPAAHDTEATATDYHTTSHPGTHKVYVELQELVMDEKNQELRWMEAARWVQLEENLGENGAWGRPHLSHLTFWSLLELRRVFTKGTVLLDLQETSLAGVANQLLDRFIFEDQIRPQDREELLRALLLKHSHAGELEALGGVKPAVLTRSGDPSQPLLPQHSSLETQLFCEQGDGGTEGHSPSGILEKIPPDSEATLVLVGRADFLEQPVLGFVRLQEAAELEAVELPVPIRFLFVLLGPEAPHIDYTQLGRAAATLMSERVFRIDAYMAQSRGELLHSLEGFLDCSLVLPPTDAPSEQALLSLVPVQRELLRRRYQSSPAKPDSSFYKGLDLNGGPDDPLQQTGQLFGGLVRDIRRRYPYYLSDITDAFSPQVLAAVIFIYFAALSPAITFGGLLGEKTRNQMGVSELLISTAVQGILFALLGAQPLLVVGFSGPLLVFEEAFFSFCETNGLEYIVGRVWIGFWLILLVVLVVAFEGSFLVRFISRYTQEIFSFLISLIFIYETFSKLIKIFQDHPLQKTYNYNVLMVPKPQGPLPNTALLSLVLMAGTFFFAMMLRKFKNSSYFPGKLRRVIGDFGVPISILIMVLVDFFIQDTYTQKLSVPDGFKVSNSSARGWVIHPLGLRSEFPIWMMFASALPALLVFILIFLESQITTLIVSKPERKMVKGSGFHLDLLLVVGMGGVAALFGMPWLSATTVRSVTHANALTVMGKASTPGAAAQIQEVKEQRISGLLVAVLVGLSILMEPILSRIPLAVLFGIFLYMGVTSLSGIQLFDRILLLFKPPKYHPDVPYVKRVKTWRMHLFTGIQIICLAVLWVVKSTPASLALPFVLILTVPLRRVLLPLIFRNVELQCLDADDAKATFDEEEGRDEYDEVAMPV
- experimental-details: 36Cl exchange flux inhibition in red blood cells, Dixon plots
- Assay type: cell-based
- details: read-out: Average KoI (SE); pHo 10.6; 0°C
quantity: Kd (mM)

>  <compound>
[I-].[K+] [iodide, potassium iodide]

>  <tested-system>
band 3 (Homo sapiens)

>  <unit-string>
mM

>  <result-number>
18.4

$$$$

* * *

- tested-system: band 3 (Homo sapiens)
- experimental-details: 36Cl exchange flux inhibition in red blood cells, Dixon plots
- Format: cell-based
- details: read-out: Average KoI (SE); pHo 10; 0°C
quantity: Kd (mM)

>  <molecule>
[I-].[K+] [iodide, potassium iodide]

>  <result-number>
6.48

$$$$
